Please provide measured melting point for the entries that follow.

Item COC1CCN(C(=O)c2ccc(Nc3nc(-c4cccc(N5CCc6cc(C7CC7)ccc6C5=O)c4CO)cn(C)c3=O)cc2)CC1 has what recorded melting point? 146 to 148 °C

Item Cn1cc(-c2cccc(N3CCc4cc(C5(F)CC5)ccc4C3=O)c2CO)nc(Nc2ccc(C(=O)N3CCOCC3)cc2)c1=O has what recorded melting point? 172 to 174 °C

Item Cn1cc(-c2cccc(N3CCc4cc(C5CC5)ccc4C3=O)c2CO)nc(Nc2ccc(C(=O)N3CCC(O)CC3)cc2)c1=O has what recorded melting point? 171 to 173 °C

Item CN(CCO)C(=O)c1ccc(Nc2nc(-c3cccc(N4CCc5cc(C6CC6)ccc5C4=O)c3CO)cn(C)c2=O)cc1 has what recorded melting point? 115 to 117 °C

Item Cn1cc(-c2cccc(N3CCc4cc(C5CC5)ccc4C3=O)c2CO)nc(Nc2ccc(C(=O)N3CCCC3)cc2)c1=O has what recorded melting point? 178 to 180 °C

Item CN(C)c1ccc2c(c1)CCN(c1cccc(-c3cn(C)c(=O)c(Nc4ccc5c(c4)OC(F)(F)O5)n3)c1CO)C2=O has what recorded melting point? 145 to 150 °C

---

Quantity measured: melting point

Item CC1CN(C(=O)c2ccc(Nc3nc(-c4cccc(N5CCc6cc(C7CC7)ccc6C5=O)c4CO)cn(C)c3=O)cc2)CC(C)O1 (stereo not shown) has what recorded melting point? 173 to 175 °C

Item CCN1CCN(C(=O)c2ccc(Nc3nc(-c4cccc(N5CCc6cc(C7CC7)ccc6C5=O)c4CO)cn(C)c3=O)cc2)CC1 has what recorded melting point? 153 to 155 °C

Item Cn1cc(-c2cccc(N3CCc4cc(C5CC5)ccc4C3=O)c2CO)nc(Nc2ccc(C(=O)N3CCN(CCO)CC3)cc2)c1=O has what recorded melting point? 175 to 180.1 °C

Item CN1CCN(C(=O)c2ccc(Nc3nc(-c4cccc(N5CCc6cc(C7CC7)ccc6C5=O)c4CO)cn(C)c3=O)cc2)CC1 has what recorded melting point? 172 to 175 °C

---

Quantity measured: IC50
Express your answer as a number followed by its unit.

Quick check: IC50 on Btk enzyme (His-tagged, full-length) (Homo sapiens (Human), UniProt Q06187), item Cn1cc(Nc2nc(-c3cccc(N4CCc5cc(C6CC6)ccc5C4=O)c3CO)cn(C)c2=O)cn1 ? 0.016 µM

Quick check: IC50 on Btk enzyme (His-tagged, full-length) (Homo sapiens (Human), UniProt Q06187), item Cn1cc(-c2cccc(N3CCc4cc(C5CC5)ccc4C3=O)c2CO)nc(Nc2ccc(C(=O)N3CCC(O)CC3)cc2)c1=O ? 0.01 µM

Quick check: IC50 on Btk enzyme (His-tagged, full-length) (Homo sapiens (Human), UniProt Q06187), item Cn1cc(-c2cccc(N3CCc4cc(C5(F)CC5)ccc4C3=O)c2CO)nc(Nc2ccc(C(=O)N3CCOCC3)cc2)c1=O ? 0.01 µM
